Test system: α-myosin heavy chain (α-MyHC) protein levels
Test: α-MyHC cytoblot assay in neonatal rat ventricular myocytes (NRVM)
Assay type: cell-based
Details: Rattus norvegicus, Ventricular myocyte, 72 h, 3 days, average of six independent experiments, read-out: concentration that gave a half-maximal response (α-MyHC protein levels)
quantityKind: EC50
A bare number is not enough; add the unit after it.

Task item: Please look up its EC50: CC(=O)C1=C(C)NC(SCC(=O)c2cccc([N+](=O)[O-])c2)=C(C#N)C1c1ccccc1Cl (racemic)
Reply: 60 nM
